test: Pharmacokinetics in male beagle dogs after oral or 30-min intravenous administration, 1 mg/kg (LC/MS/MS); assay type: in vivo; conditions: male, beagle, dog, plasma, iv, 1 mg/kg, 30 min iv, 1 mg/kg d-amphetamine base, individual dogs, read-out: MRT of L-lysine-d-amphetamine
measurement name: MRT (min)
Note: unit min is implicit; provide only the numeric part.

Please look up its MRT: CC(Cc1ccccc1)NC(=O)C(N)CCCCN (stereo not shown) 21.6

====

assay: Clinical steady-state pharmacokinetics, 70 mg capsules once daily for 7 days, healthy adults, fasting; details: human, in vivo, 70 mg
measurement name: AUC(0-inf) (ng·h/mL)
Respond with the bare value in ng·h/mL.

What does the data say about its AUC(0-inf)? Entry: CC(Cc1ccccc1)NC(=O)C(N)CCCCN [L-lysine-d-amphetamine] 61.1

====

experiment: Clinical pharmacokinetics, 25 and 75 mg, compared to Adderall XR and Dexedrine Spansule; settings: human, in vivo, po, 25 mg, L-lysine-d-amphetamine intact conjugate concentration, oral 25 mg L-lysine-d-amphetamine, 72 h, individual subjects
measurement name: concentration at 72 h

Sample CC(Cc1ccccc1)NC(=O)C(N)CCCCN (stereo not shown) — what was its concentration at 72 h? 0 ng/mL

====

assay: Pharmacokinetics in male beagle dogs after oral or 30-min intravenous administration, 1 mg/kg (LC/MS/MS); type: in vivo; details: male, beagle, dog, plasma, iv, 1 mg/kg, IV 30-min infusion, 1 mg/kg, read-out: Mean clearance of L-lysine-d-amphetamine
measurement name: clearance (mL/min/kg)
Numbers only; they are read as mL/min/kg.

Any idea what its clearance is? The molecule is CC(Cc1ccccc1)NC(=O)C(N)CCCCN (stereo not shown) 34.8

====

assay: Clinical pharmacokinetics, 25 and 75 mg, compared to Adderall XR and Dexedrine Spansule; conditions: human, in vivo, po, 75 mg, L-lysine-d-amphetamine intact conjugate concentration, oral 75 mg L-lysine-d-amphetamine, 8 h, individual subjects
measurement name: concentration at 8 h (ng/mL)
Hi! Could you send only the number? It should be in ng/mL, unit omitted.

Could you share which concentration at 8 h value was measured for CC(Cc1ccccc1)NC(=O)C(N)CCCCN (stereo not shown) ? 0

====

test: Clinical steady-state pharmacokinetics, 70 mg capsules once daily for 7 days, healthy adults, fasting; conditions: human, in vivo, 70 mg
measurement name: half-life (min)
// units = min; emit number, no label

// half-life lookup, key: CC(Cc1ccccc1)NC(=O)C(N)CCCCN [L-lysine-d-amphetamine] 25.8

====

test: Clinical pharmacokinetics, 25 and 75 mg, compared to Adderall XR and Dexedrine Spansule; details: human, in vivo, po, 25 mg, L-lysine-d-amphetamine intact conjugate concentration, oral 25 mg L-lysine-d-amphetamine, 24 h, mean
measurement name: concentration at 24 h (ng/mL)
Entry rule: numbers only, all in ng/mL.

concentration at 24 h for CC(Cc1ccccc1)NC(=O)C(N)CCCCN [L-lysine-d-amphetamine] ? 0

====

Assay: Pharmacokinetics in male beagle dogs after oral or 30-min intravenous administration, 1 mg/kg (LC/MS/MS)
Type: in vivo
Settings: male, beagle, dog, plasma, po, 1 mg/kg, oral, 1 mg/kg d-amphetamine base, individual dogs, read-out: MRT of L-lysine-d-amphetamine
Method: This was a non-randomized, two-treatment crossover study. All animals were maintained on their normal diet and were fasted overnight prior to each dose administration. L-lysine-d-amphetamine dose was based on the body weight measured on the morning of each dosing day. […] Microsoft Excel (Version 6, Microsoft Corp., Redmond, Wash.) was used for calculation of mean plasma concentration and graphing of the plasma concentration-time data. […] Half-life was calculated as ln 2/λz. […]
measurement name: MRT (min)
Dear colleague, please return just the value in min, with no unit written.

Could you tell me which MRT is on file for CC(Cc1ccccc1)NC(=O)C(N)CCCCN (stereo not shown) ? 44.4
